# System: multidrug-resistant Pseudomonas aeruginosa MDR-PA 18-202
# experiment-notes: MIC by microbroth dilution, MDR-PA 18-202
# Type: cell-based
# test-settings: Pseudomonas aeruginosa; strain MDR-PA 18-202; 37° C., 20-22 hours; read-out: Minimum bacteriostatic concentration (MIC)
Measured MIC values are reported for all entries that follow.
reported-metric: MIC (µg/mL)

- compound: "C=C[C@]1(C)C[C@@H](OC(=O)CO)[C@]2(C)[C@H](C)CC[C@]3(CCC(=O)[C@H]32)[C@@H](C)[C@@H]1O [Pleuromulin]"
  readout-unit: "µg/mL"
  result-comparator: ">"
  reported-value: 128
- compound: "C=C[C@]1(C)C[C@@H](OC(=O)COC(=O)/C=C(C)/C=C/C=C(C)/C=C/c2c(C)cc(OC)c(C)c2C)[C@]2(C)CC[C@@H](C)C3(CCC(=O)[C@H]32)[C@@H](C)[C@@H]1O [Pleuromulin acitretinester]"
  readout-unit: "µg/mL"
  result-comparator: "="
  reported-value: 128
- compound: "Cc1nnc(SCC2=C(C(=O)O)N3C(=O)[C@@H](NC(=O)Cn4cnnn4)[C@H]3SC2)s1 [Cefazolin sodium]"
  readout-unit: "µg/mL"
  result-comparator: "="
  reported-value: 128
- compound: "CO/N=C(\\C(=O)N[C@@H]1C(=O)N2C(C(=O)O)=C(CSc3nc(=O)c(=O)[nH]n3C)CS[C@H]12)c1csc(N)n1 [Ceftriaxone sodium]"
  readout-unit: "µg/mL"
  result-comparator: "="
  reported-value: 16
